Target: UniProt:Q8TDV5
Sequence (Q8TDV5 1-335): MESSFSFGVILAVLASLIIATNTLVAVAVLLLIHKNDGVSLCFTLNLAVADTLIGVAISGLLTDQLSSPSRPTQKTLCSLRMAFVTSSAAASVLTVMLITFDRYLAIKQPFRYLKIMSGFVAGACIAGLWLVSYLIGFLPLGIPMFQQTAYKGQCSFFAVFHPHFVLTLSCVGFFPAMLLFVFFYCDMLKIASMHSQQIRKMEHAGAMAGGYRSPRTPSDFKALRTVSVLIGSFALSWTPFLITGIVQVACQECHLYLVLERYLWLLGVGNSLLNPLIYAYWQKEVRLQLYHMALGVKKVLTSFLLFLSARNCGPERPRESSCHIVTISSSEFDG
Test: Functional cellular assay measuring GPR119-mediated cAMP release (HTRF)
Conditions: HEK-293 cell line stably expressing recombinant human GPR119; cAMP response, 30 minutes at room temperature
Exam item: assign YES to entries whose EC50 is below 100 nM and NO to entries at or above 100 nM. Note that a value of exactly 100 nM receives NO.

Examples from the recorded data:
| molecule | cat |
| --- | --- |
| O=C1CC(CO)c2c(F)cc(N3CC[C@@H](Oc4ccc(OCC5CC5)nc4)C3=O)cc21 (stereo partly shown) [Example 1-17] | YES |
| NC(=O)CC1CC(=O)c2cc(N3CC[C@@H](Oc4ccc(OCC5CC5)nc4)C3=O)ccc21 (stereo partly shown) [Example 3-04] | NO |
| NC(=O)CC1CC(=O)c2cc(N3CC[C@@H](Oc4ccc(OCC5CC5)nc4)C3=O)cc(F)c21 (stereo partly shown) [Example 3-10] | YES |
| COC(=O)CC1CC(=O)c2cc(N3CC[C@@H](Oc4ccc(OC5CC5)nc4)C3=O)cc(F)c21 (stereo partly shown) [Example 1-11] | YES |
| O=C(O)C[C@H]1CC(=O)c2cc(N3CC[C@@H](Oc4ccc(OCC5CC5)nc4)C3=O)ccc21 [Example 2-04] | NO |
| COC(=O)C1Cc2ccc(N3CC[C@@H](Oc4ccc(OCC5CC5)nc4)C3=O)cc2C1=O (stereo partly shown) [Example 1-10] | YES |

stdin: Would you kindly verify if EC50 of CN(C)C(=O)C1CC(=O)c2cc(N3CC[C@@H](Oc4ccc(OCC5CC5)nc4)C3=O)cc(F)c21 (stereo partly shown) [Example 1-16] is strictly less than 100 nM?
stdout: NO

====

log10(EC50) by entry:
Molecular target: human GPR119 (Homo sapiens)
Sequence (Q8TDV5 1-335): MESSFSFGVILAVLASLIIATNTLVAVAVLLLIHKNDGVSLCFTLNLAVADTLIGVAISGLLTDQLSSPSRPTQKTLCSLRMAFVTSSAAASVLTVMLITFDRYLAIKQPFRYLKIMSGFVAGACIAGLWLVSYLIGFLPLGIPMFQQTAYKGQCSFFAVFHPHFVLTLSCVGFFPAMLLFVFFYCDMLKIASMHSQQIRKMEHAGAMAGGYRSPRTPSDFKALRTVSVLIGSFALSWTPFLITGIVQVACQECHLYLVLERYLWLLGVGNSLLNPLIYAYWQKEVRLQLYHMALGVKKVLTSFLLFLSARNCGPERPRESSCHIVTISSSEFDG
Assay: Functional cellular assay measuring GPR119-mediated cAMP release (HTRF)
Settings: HEK-293 cell line stably expressing recombinant human GPR119; cAMP response, 30 minutes at room temperature
// do not treat as linear: log10 of EC50, unit nM

| molecule | target.of.assay | observation.type | measured.number |
| --- | --- | --- | --- |
| CN(C)C(=O)CC1Cc2c(F)cc(N3CC[C@@H](Oc4ccc(OCC5CC5)nc4)C3=O)cc2C1=O (stereo partly drawn) | human GPR119 (Homo sapiens) | log10(EC50) | 1.66 |
| COC(=O)CC1CC(=O)c2cc(N3CC[C@@H](Oc4ccc(OCC5CC5)nc4)C3=O)cc(F)c21 (stereo partly drawn) | human GPR119 (Homo sapiens) | log10(EC50) | 1.08 |
| COC(=O)CC1Cc2c(F)cc(N3CC[C@@H](Oc4ccc(OCC5CC5)nc4)C3=O)cc2C1=O (stereo partly drawn) | human GPR119 (Homo sapiens) | log10(EC50) | 1.15 |
| O=C(CC1CC(=O)c2cc(N3CC[C@@H](Oc4ccc(OCC5CC5)nc4)C3=O)ccc21)NC1CC1 (stereo partly drawn) | human GPR119 (Homo sapiens) | log10(EC50) | 2.53 |

Considering O=C1c2cc(N3CC[C@@H](Oc4ccc(OCC5CC5)nc4)C3=O)cc(F)c2CC1CC(=O)N1CCOCC1 (stereo partly drawn) , its log10(EC50) with human GPR119 (Homo sapiens) was recorded as 1.92

====

EC50 by entry:
Target: human GPR119 (Homo sapiens, UniProt Q8TDV5)
Assay: Functional cellular assay measuring GPR119-mediated cAMP release (HTRF)
Conditions: HEK-293 cell line stably expressing recombinant human GPR119; cAMP response, 30 minutes at room temperature
Answer in nM, number only, no unit symbol.

| compound | EC50 / nM |
| --- | --- |
| O=C1CC(CCO)c2ccc(N3CC[C@@H](Oc4ccc(Oc5ccc(F)cc5)nc4)C3=O)cc21 (stereo partly shown) | 311 |

The recorded EC50 for entry CN(C)C(=O)CC1CC(=O)c2cc(N3CC[C@@H](Oc4ccc(OCC5CC5)nc4)C3=O)cc(F)c21 (stereo partly shown) equals 59

The recorded EC50 for entry COC(=O)CC1CC(=O)c2cc(N3CC[C@@H](Oc4ccc(Oc5ccc(F)cc5)cc4)C3=O)ccc21 (stereo partly shown) equals 111

The recorded EC50 for entry O=C(O)C[C@@H]1CC(=O)c2cc(N3CC[C@@H](Oc4ccc(OCC5CC5)nc4)C3=O)ccc21 equals 1990

The recorded EC50 for entry O=C(O)CC1CC(=O)c2cc(N3CC[C@@H](Oc4ccc(OCC5CC5)nc4)C3=O)ccc21 (stereo partly shown) equals 135

The recorded EC50 for entry COC(=O)CC1CC(=O)c2cc(N3CC[C@@H](Oc4ccc(OC5CC5)nc4)C3=O)ccc21 (stereo partly shown) equals 98

The recorded EC50 for entry COC(=O)C[C@H]1CC(=O)c2cc(N3CC[C@@H](Oc4ccc(OCC5CC5)nc4)C3=O)ccc21 equals 16
